Target desc: Acetylcholinesterase (Homo sapiens, UniProt P22303)
Sequence (P22303 whole entry): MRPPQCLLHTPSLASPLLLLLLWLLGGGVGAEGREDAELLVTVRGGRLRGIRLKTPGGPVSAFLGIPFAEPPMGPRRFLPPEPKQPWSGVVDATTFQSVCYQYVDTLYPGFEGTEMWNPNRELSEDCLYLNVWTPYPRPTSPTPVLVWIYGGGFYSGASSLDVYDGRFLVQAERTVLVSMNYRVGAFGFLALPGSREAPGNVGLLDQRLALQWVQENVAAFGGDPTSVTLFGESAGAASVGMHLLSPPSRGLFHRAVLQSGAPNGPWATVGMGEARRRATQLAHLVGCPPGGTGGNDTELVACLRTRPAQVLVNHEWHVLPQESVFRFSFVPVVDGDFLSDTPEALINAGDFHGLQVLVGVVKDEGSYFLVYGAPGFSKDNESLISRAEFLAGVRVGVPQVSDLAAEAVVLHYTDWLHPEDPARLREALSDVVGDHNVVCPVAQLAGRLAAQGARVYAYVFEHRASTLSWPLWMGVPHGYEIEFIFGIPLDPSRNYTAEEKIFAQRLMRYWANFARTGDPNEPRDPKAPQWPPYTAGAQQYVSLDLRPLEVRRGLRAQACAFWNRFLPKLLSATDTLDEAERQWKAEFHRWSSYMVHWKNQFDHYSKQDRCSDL
Examples of molecules with documented pIC50 follow.
FYI, pIC50 means -log10 of a concentration in mol per litre.

CCOC(=O)C1=C(Nc2cccc(F)c2)CC(c2ccc(Cl)cc2)N(c2cccc(F)c2)C1c1ccc(Cl)cc1 (centres undefined); 5.90

Return pIC50 for the following molecule: CCOC(=O)C1=C(Nc2ccccc2)CC(c2ccc(F)cc2)N(c2ccccc2)C1c1ccc(F)cc1 (centres undefined) 5.87

Return pIC50 for the following molecule: CCOC(=O)C1=C(Nc2ccc(F)cc2)CC(c2ccc(Cl)cc2)N(c2ccc(F)cc2)C1c1ccc(Cl)cc1 (centres undefined) 6.04

Return pIC50 for the following molecule: CCOC(=O)C1=C(Nc2ccc(F)cc2)CC(c2ccc(C(F)(F)F)cc2)N(c2ccc(F)cc2)C1c1ccc(C(F)(F)F)cc1 (centres undefined) 6.03
